system: HCT116 WT cells; assay: HCT116 WT cell proliferation / viability (CellTiter-Glo, 6 days); format: cell-based; conditions: Homo sapiens, HCT-116, 144 h, HCT116 WT cells, 6 days, CellTiter-Glo; read-out: HCT-116 WT IC50
outcome_measure: IC50 (nM)

input_smiles	target_of_assay	unit_of_measure	IC50
Nc1nc2ccc(C(=O)N(Cc3ccc(C(F)(F)F)cn3)CC3CC3)cc2c2c1COC2	HCT116 WT cells	nM	1340

(P) CCN(Cc1ccc(C(F)(F)F)cc1)C(=O)c1cc2c3c(c(N)nc2cn1)COC3
(Q) Nc1nc2cc(F)c(C(=O)N(Cc3ccc(C(F)(F)F)cn3)C34CC(C3)C4)cc2c2c1COC2
(R) C[C@H](c1ccc(C(F)(F)F)nn1)N(C(=O)c1cc2c3c(c(N)nc2cc1Cl)COC3)C1CCC1
(S) CN(Cc1ccc(C(F)(F)F)cn1)C(=O)c1cc2c3c(c(N)nc2cc1F)COC3
(T) CN(Cc1ncc(C(F)(F)F)cc1F)C(=O)c1ccc2nc(N)c3cnn(C)c3c2c1
Sequence the entries by IC50, beginning with the highest number. Reply with the item labels sorted in the order that was asked for.
T, S, P, Q, R
(T: 13500 nM, S: 7810 nM, P: 2870 nM, Q: 1560 nM, R: 967 nM)

----------
system: HCT116 WT cells; test: HCT116 WT cell proliferation / viability (CellTiter-Glo, 6 days); type: cell-based; conditions: Homo sapiens, HCT-116, 144 h, HCT116 WT cells, 6 days, CellTiter-Glo; read-out: HCT-116 WT IC50
pIC50: −log10 of the molar value.
outcome_measure: pIC50

(P) CCN(Cc1ccc(C(F)(F)F)cc1)C(=O)c1ccc2nc(N)c3c(c2c1)COC3
(Q) CC1OCc2c1c(N)nc1ccc(C(=O)N(Cc3ccc(C(F)(F)F)cn3)C3CC3(C)C)cc21 (stereo not shown)
(R) CC(C)N(Cc1ccc(C(F)(F)F)cn1)C(=O)c1cc2c3c(c(N)nc2cc1F)CCO3
(S) CC(C)CN(Cc1ccc(C(F)(F)F)cn1)C(=O)c1ccc2nc(N)c3c(c2c1)CO[C@@H]3CO (single isomer, unassigned)
Quick one: which order do the items above go in by pIC50, smallest to largest? Reply with the item labels sorted in the order that was asked for.
S, Q, P, R
(S: 4.97, Q: 5.21, P: 5.46, R: 6.49)

----------
tested on: HCT116 WT cells; assay: HCT116 WT cell proliferation / viability (CellTiter-Glo, 6 days); assay type: cell-based; settings: Homo sapiens, HCT-116, 144 h, HCT116 WT cells, 6 days, CellTiter-Glo; read-out: HCT-116 WT IC50
outcome_measure: IC50 (µM)

Example entries begin here.
compound	outcome_measure	value_reported
C[C@H](c1ccc(C(F)(F)F)cn1)N(C)C(=O)c1cc2c3c(c(N)nc2cn1)COC3 (single isomer, unassigned) [Example 854]	IC50	3.28
C[C@H](c1ccc(C(F)(F)F)nn1)N(C)C(=O)c1ccc2nc(N)c3c(c2c1)CO[C@@H]3C (single isomer, unassigned) [Example 856]	IC50	8.48
COC[C@@H](C)N(Cc1ccc(C(F)(F)F)cn1)C(=O)c1ccc2nc(N)c3c(c2c1)COC3 [Example 445]	IC50	0.153
CC(C)N(Cc1ccc(C2CC2)nc1)C(=O)c1cc2c3c(c(N)nc2cn1)COC3 [Example 383]	IC50	43

(I) C[C@H](c1ncccn1)N(Cc1ccc(C(F)(F)F)nn1)C(=O)c1ccc2nc(N)c3c(c2c1)CCC3 (single isomer, unassigned) [Example 649]
(II) C[C@H]1OCc2c1c(N)nc1cnc(C(=O)N(C)Cc3ccc(Br)cn3)cc21 (single isomer, unassigned) [Example 597]
I need your help: which of the pair I , II has higher IC50? API: response body contains the label of the selected item.
II
(II: 15.2 µM, I: 0.181 µM)

----------
test system: HCT116 WT cells; test: HCT116 WT cell proliferation / viability (CellTiter-Glo, 6 days); type: cell-based; conditions: Homo sapiens, HCT-116, 144 h, HCT116 WT cells, 6 days, CellTiter-Glo; read-out: HCT-116 WT IC50
outcome_measure: IC50 (µM)

Example entries begin here.
compound	value_reported
C[C@H]1OCc2c1c(N)nc1cc(F)c(C(=O)N(C)[C@@H](C)c3ccc(C(F)(F)F)cc3)cc21 (single isomer, unassigned)	17.5
C[C@H](c1ccc(-c2ccc(C(F)(F)F)cc2)nn1)N(C)C(=O)c1ccc2nc(N)c3cnn(C)c3c2c1	2.03
C[C@H](c1ncc(C(F)(F)F)cc1F)N(C)C(=O)c1cc2c3c(c(N)nc2cc1F)COC3 (single isomer, unassigned)	0.676
Nc1nc2ccc(C(=O)N(Cc3ccc(OC(F)(F)F)cn3)CC3CC3)cc2c2c1COC2	1.02
C[C@H](c1ncccn1)N(Cc1ccc(C(F)(F)F)cn1)C(=O)c1ccc2nc(N)c3c(c2c1)COC3	0.073

(a) C[C@H](c1ncn(C)n1)N(Cc1ccc(C(F)F)cn1)C(=O)c1cc2c3c(c(N)nc2cn1)COC3
(b) CCN(Cc1ccc(C(F)(F)F)cn1)C(=O)c1cc2c(cn1)nc(N)c1c(C)nn(C)c12
(c) N#Cc1ccc(CN(CC2CC2)C(=O)c2cc3c4c(c(N)nc3cn2)COC4)nc1
(d) C[C@H](c1ncccn1)N(Cc1ccc(C(F)(F)F)cn1)C(=O)c1cc2c3c(c(N)nc2cc1Cl)COC3
Sequence the entries by IC50, beginning with the highest number. Reply with the item labels sorted in the order that was asked for.
b, a, c, d
(b: 12.4 µM, a: 7.13 µM, c: 3.4 µM, d: 0.294 µM)

----------
tested on: HCT116 WT cells; assay: HCT116 WT cell proliferation / viability (CellTiter-Glo, 6 days); format: cell-based; settings: Homo sapiens, HCT-116, 144 h, HCT116 WT cells, 6 days, CellTiter-Glo; read-out: HCT-116 WT IC50
pIC50: −log10 of the molar value.
outcome_measure: pIC50

Cc1cc2nc(N)c3c(cnn3C)c2cc1C(=O)N(C)Cc1ccc(C(F)(F)F)cn1 5.04
CC(C)N(Cc1ccc(C(F)(F)F)nn1)C(=O)c1ccc2nc(N)c3c(c2c1)CO[C@@H]3C 5.16
C[C@H](c1ncccn1)N(Cc1ccc(C(F)(F)F)cn1)C(=O)c1ccc2nc(N)c3ccncc3c2c1 7.15
COC[C@@H](C)N(Cc1ccc(Br)nn1)C(=O)c1ccc2nc(N)c3c(c2c1)COC3 6.36
CCN(Cc1ccc(C(F)(F)F)nn1)C(=O)c1cc2c(cc1F)nc(N)c1cnn(C)c12 5.69

(a) Cn1cc(N(Cc2ccc(C(F)(F)F)nn2)C(=O)c2cc3c4c(c(N)nc3cn2)COC4)cn1
(b) COC[C@@H](C)N(Cc1ccc(Br)nn1)C(=O)c1cc2c3c(c(N)nc2cn1)COC3
Problem: Given the entries a and b , determine which has the lower reported pIC50. API: response body contains the label of the selected item.
a

----------
system: HCT116 WT cells; experiment: HCT116 WT cell proliferation / viability (CellTiter-Glo, 6 days); format: cell-based; conditions: Homo sapiens, HCT-116, 144 h, HCT116 WT cells, 6 days, CellTiter-Glo; read-out: HCT-116 WT IC50
outcome_measure: IC50 (µM)

Example entries begin here.
molecule	target_of_assay	IC50 (µM)
COC[C@@H](C)N(Cc1ccc(Cl)nn1)C(=O)c1ccc2nc(N)c3c(c2c1)COC3 [Example 305]	HCT116 WT cells	0.861
COC(=O)N1CCN(c2ccc(CN(C)C(=O)c3ccc4nc(N)c5c(c4c3)COC5)nc2)CC1 [Example 413]	HCT116 WT cells	20.3
CC(C)N(Cc1ccc(Cl)cn1)C(=O)c1ccc2nc(N)c3c(c2c1)CO[C@@H]3C [Example 423]	HCT116 WT cells	3.98
C[C@H](c1ncccn1)N(Cc1ccc(Br)nn1)C(=O)c1ccc2nc(N)c3c(c2c1)COC3 [Example 657]	HCT116 WT cells	0.196
CN(Cc1ccc(C(F)(F)C(F)(F)F)cc1)C(=O)c1cc2c(cn1)nc(N)c1cnn(C)c12 [Example 562]	HCT116 WT cells	3.53

(a) Nc1nc2ccc(C(=O)N(Cc3ccc(Br)cn3)C3CC3)cc2c2c1COC2 [Example 455]
(b) C[C@H](c1ccc(C(F)(F)F)nn1)N(C(=O)c1cc2c(cc1F)nc(N)c1cnn(C)c12)C1CC1 (single isomer, unassigned) [Example 878]
Problem: Given the entries a and b , determine which has the lower reported IC50. API: response body contains the label of the selected item.
b

----------
test system: HCT116 WT cells; assay: HCT116 WT cell proliferation / viability (CellTiter-Glo, 6 days); format: cell-based; conditions: Homo sapiens, HCT-116, 144 h, HCT116 WT cells, 6 days, CellTiter-Glo; read-out: HCT-116 WT IC50
pIC50: −log10 of the molar value.
outcome_measure: pIC50

compound	pIC50
CCN(Cc1ccc(C(F)(F)F)cn1)C(=O)c1cc2c(cc1F)nc(N)c1c(C)nn(C)c12	5.38
C[C@H]1OCc2c1c(N)nc1ccc(C(=O)N(Cc3ccc(C(F)(F)F)cn3)CC3(C)CC3)cc21	6.21
CN(Cc1ccc(C(F)(F)F)cn1)C(=O)c1cc2c(cc1Cl)nc(N)c1cnn(C)c12	6.47

(1) CC(c1ncccn1)N(Cc1ccc(C(F)(F)F)cn1)C(=O)c1ccc2nc(N)c3c(cnn3C)c2c1 (racemic)
(2) CC(C)CN(Cc1ccc(C(F)(F)F)cn1)C(=O)c1ccc2nc(N)c3c(c2c1)CCC3
(3) C[C@H]1OCc2c1c(N)nc1ccc(C(=O)N(Cc3ccc(C(F)(F)F)cn3)C3CCOCC3)cc21
Sequence the entries by pIC50, beginning with the highest number. Reply with the item labels sorted in the order that was asked for.
1, 2, 3
